Attribution: ChEMBL document CHEMBL5230090

# TARGET: Keap1/Nrf2 (Homo sapiens)
# Sequence (Q16236 whole entry): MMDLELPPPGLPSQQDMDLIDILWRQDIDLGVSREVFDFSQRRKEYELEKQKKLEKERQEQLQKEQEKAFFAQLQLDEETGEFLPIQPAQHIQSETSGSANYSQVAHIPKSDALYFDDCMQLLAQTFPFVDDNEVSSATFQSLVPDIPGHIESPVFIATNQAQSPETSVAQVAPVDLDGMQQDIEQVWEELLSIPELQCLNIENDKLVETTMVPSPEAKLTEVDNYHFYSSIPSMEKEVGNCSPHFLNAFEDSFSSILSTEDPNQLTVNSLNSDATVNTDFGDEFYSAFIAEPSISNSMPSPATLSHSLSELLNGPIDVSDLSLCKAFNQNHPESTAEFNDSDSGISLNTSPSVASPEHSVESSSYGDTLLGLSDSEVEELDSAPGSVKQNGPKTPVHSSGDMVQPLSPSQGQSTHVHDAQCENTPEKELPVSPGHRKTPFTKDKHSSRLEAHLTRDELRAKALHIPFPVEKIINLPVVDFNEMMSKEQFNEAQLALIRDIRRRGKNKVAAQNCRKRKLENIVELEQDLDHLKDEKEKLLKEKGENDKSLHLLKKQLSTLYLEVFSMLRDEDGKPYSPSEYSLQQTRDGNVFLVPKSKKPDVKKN
# Sequence (Q14145 whole entry): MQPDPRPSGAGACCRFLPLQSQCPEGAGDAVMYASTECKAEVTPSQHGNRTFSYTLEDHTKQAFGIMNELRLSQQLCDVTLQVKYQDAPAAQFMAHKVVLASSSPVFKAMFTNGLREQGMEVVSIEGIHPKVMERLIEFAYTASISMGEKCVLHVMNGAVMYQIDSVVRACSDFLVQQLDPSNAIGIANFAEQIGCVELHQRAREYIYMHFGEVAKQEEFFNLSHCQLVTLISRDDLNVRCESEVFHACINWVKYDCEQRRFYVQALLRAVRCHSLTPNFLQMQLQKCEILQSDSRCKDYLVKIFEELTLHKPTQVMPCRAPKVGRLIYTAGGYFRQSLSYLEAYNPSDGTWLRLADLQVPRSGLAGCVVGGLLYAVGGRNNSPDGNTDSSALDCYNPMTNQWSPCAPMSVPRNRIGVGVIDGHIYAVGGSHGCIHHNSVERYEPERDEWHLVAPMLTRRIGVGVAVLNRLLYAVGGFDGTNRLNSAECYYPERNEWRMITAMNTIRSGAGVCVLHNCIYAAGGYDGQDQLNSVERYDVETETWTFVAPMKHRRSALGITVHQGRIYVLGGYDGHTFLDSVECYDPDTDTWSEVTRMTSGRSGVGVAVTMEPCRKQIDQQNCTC
# METHOD_DESCRIPTION: Inhibition of human Keap1-Nrf2 protein-protein interaction by ELISA method
# Type: protein assay

| COMPOUND | UNIT_OF_MEASURE | IC50 |
| --- | --- | --- |
| CC(=O)N1CCN(c2ccc(OCC3COC(Cn4ccnc4)(c4ccc(Cl)cc4Cl)O3)cc2)CC1 (stereo unspecified) | µM | 1.67 |

---

# TARGET: Kelch-like ECH-associated protein 1 (Homo sapiens)
# Sequence (Q14145 whole entry): as above
pKd: −log10 of the molar value.
PROPERTY_MEASURED: pKd

| SAMPLE_SMILES | OBSERVED_MEASUREMENT |
| --- | --- |
| O=C(O)c1ccc(NC2=C/C(=N/S(=O)(=O)c3ccc4ccccc4c3)c3ccccc3C2=O)cc1 | 6.80 |
| CCc1ccc(S(=O)(=O)N(CC(=O)O)c2cc(Sc3nc[nH]n3)c(O)c3ccccc23)cc1 | 6.34 |
